system: diaphragm tissue from fat-fed rats; test: Pyruvate oxidation by diaphragm tissue from fat-fed rats in vitro (14C from labelled pyruvate into CO2); design: species or system rat; conditions: Concentration 2 mM; diaphragm tissue from rats fed on a high fat diet
Square brackets hold non-standard residues; d marks the D form. Peptide text beside a SMILES is read from it. Hpg = N[C@H](C(=O)O)c1ccc(O)cc1
endpoint.name: % Stimulation (pyruvate oxidation) (%)
Just the number please, in %, no unit attached.

molecule="Br.CC[C@H](C)[C@H](N)C(=O)N[C@H](C(=O)O)c1ccc(O)cc1 [Example 10] (H-Ile-[Hpg]-OH)" endpoint_name="% Stimulation (pyruvate oxidation)" assay_value=10

Given the molecule Br.CC[C@H](C)[C@H](N)C(=O)N[C@H](C(=O)OC)c1ccc(O)cc1.O [Example 9] (H-Ile-[Hpg]-OMe) , write its reported % Stimulation (pyruvate oxidation).
35

Kindly indicate its recorded % Stimulation (pyruvate oxidation). Item: Br.C[C@H](N)C(=O)N[C@H](C(=O)O)c1ccc(O)cc1 [Example 8] (H-Ala-[Hpg]-OH)
23

Answer with the recorded % Stimulation (pyruvate oxidation) of Br.COC(=O)[C@@H](NC(=O)[C@H](C)N)c1ccc(O)cc1 [Example 7] (H-Ala-[Hpg]-OMe) only.
61
